Data origin: ChEMBL document CHEMBL3120152

# Test system: HeLa
# assay method text: Cytotoxicity against human HeLa cells expressing beta3-tubulin containing alanine residue at 277 after 72 hrs by SRB assay
recorded metric: IC50 (nM)
Quick note: give the figure in nM, leave out the unit.

*Q* Requested read-out IC50, target or system HeLa, entry COc1cc(OC)c(CCC(=O)c2ccc(OC)c(O)c2)c(OC)c1
*A* 690
